Molecular target: T1, Rhesus-ICAM1 (rhesus, UniProt Q5NKV6 28-480, limits assumed)
T1 sequence (looked up): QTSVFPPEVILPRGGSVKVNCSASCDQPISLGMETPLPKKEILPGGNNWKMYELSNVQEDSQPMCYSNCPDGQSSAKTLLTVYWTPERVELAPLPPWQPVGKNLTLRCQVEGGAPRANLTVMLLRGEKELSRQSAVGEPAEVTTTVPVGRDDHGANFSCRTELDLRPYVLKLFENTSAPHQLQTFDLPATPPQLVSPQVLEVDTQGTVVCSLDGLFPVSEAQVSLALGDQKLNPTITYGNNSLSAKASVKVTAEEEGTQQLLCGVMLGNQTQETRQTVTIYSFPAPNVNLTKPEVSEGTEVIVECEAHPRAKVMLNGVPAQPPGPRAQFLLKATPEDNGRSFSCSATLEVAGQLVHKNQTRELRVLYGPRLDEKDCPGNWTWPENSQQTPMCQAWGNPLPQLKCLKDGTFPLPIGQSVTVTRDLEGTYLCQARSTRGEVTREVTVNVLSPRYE
Test: SPR (Biacore 8K), antibody captured, antigen injected
Collected log10 of kon values appear next to each entry.
Result type: log10 of kon (log10 of the value in M⁻¹ s⁻¹)

| Binder | Result type | Recorded result |
| --- | --- | --- |
| 16E4 (antibody, human IgG1, kappa, V domains shown, Rabbit-human chimeric anti-ICAM1: rabbit VH and VL on human IgG1 and kappa constant regions) VH: QSVEESGGRLVTPGTPLTLTCTVSGFSLSSHAMGWVRQAPGKGLQYIGIIGSSGSTYYASWAKGRFTISKTSTTVDLRLTSPTTEDTATYFCVRDPYDSFGDAYRLWGPGTLVTVSS VL: AYDMTQTPASVEVAVGGTVTIKCQASQSIYSYCSWYQQKPGQRPKFLIYDASKLASGVPSRFKGSGSGTEFTLTISGMQSDDAATYYCQQAYSSSNVDNAFGGGTEVVVKR | log10 of kon | 5.71 |
| 11F2 (antibody, human IgG1, kappa, V domains shown, Rabbit-human chimeric anti-ICAM1: rabbit VH and VL on human IgG1 and kappa constant regions) VH: QSVEESGGGLVKPGGTLTLTCTVSGFSLSSHAMGWVRQAPGKGLEYIGIIGSSDRTYYASWAKGRFTISKTSTTVDLKITSPTTEDTATYFCVRDPYDSYDDGYRLWGPGTLVTVSS VL: AYDMTQTPASVEVAVGGTVTIKCQASQSIYRYLSWYQKKPGQRPKFLIYDASKLASGVPSRFEGSGSGTEFTLTISGAQSDDAATYYCQQAYSSGSIDNAFGGGTEVVVKR | log10 of kon | 5.96 |
| 3D8 (antibody, human IgG1, kappa, V domains shown, Rabbit-human chimeric anti-ICAM1: rabbit VH and VL on human IgG1 and kappa constant regions) VH: QSLEESGGDLVKPGASLTLTCTASGFSFSSSYWMCWVRQAPGKGLEWIACIDGGSAGYNYYATWAKGRFTISKTSSTTVTLQMTSLTAADRATYFCARGPGSSYNLWGPGTLVTVSS VL: DIVMTQTPASVEAAVGGTVTIKCQASQSISSYLSWYQQKPGQPPKLLIYRASTLASGVPSRFKGSGSGTEFTLTISDLESADAATYYCQSYVFGSSRSYDNAFGGGTEVVVKR | log10 of kon | 6.30 |
| 14H1 (antibody, human IgG1, kappa, V domains shown, Rabbit-human chimeric anti-ICAM1: rabbit VH and VL on human IgG1 and kappa constant regions) VH: QSVEESGGRLVTPGTPLTLTCTVSGFSLSNYYMSWVRQAPGKGLEWIGIISDSGSTYYASWAKGRFTISKTSTTVDLSITSPTTEDTATYFCARDWSYDSTSGYYYYDMDLWGPGTLVTVSA VL: AYDMTQTPASVEVAVGGTVTIKCQASQSINSWLSWFHQKPGQPPKRLIYKASTLASGVSSRFKGSGSGTQFTLTISGVESADAATYYCQQGYSRSDGEHVFGGGTEVVVKR | log10 of kon | 5.29 |
| 8H1 (antibody, human IgG1, kappa, V domains shown, Rabbit-human chimeric anti-ICAM1: rabbit VH and VL on human IgG1 and kappa constant regions) VH: QSVEESGGRLVTPGTPLTLTCTASGFSLSNYYMSWVRQAPGKGLEWIGIISDSGSTYYASWAKGRFTISKTSTTVDLKITSPTTEDTATYFCARDWSYDSSSGYYYYDMDLWGPGTLVTVSA VL: GYDMTQTPASVEVAVGGTVTIKCQASQSINSWLAWFQHKPGQPPKRLIYKASTLASGVSSRFKGSGSGTQFTLTISGVESADAATYYCQQGYSRSDGEHVFGGGTEVVVKR | log10 of kon | 5.63 |

Where do the numbers come from? From patent US20220002432A1.
